Origin of measurements: patent US10160748B2

Reported pIC50 is given for each of the following molecules.
TARGET UNDER TEST: TNFα trimer (Homo sapiens)
ASSAY: TNFα FP Competitive Binding Assay
CONDITION SET: FP binding assay; 20 nM TNFα trimer, 1 nM OregonGreen488 probe; read-out: TNF IC50
pIC50: −log10 of the molar value.

Data request: What pIC50 value was documented for this molecule, `Cc1ccc(OC(F)F)c(Cn2c3cc(-c4cnc(N5CCN(S(C)(=O)=O)[C@H](C)C5)nc4)ccc3c(=O)n2C)c1` ?
Data returned: > 6.00

Others:
Data request: What pIC50 value was documented for this molecule, `COc1c(-c2cnc(N3CCN(C(=O)CO)[C@H](C)C3)nc2)ccc2c(=O)n(C)n(Cc3ccccc3OC(F)F)c12` ?
Data returned: > 6.00

Data request: What pIC50 value was documented for this molecule, C[C@@H]1CN(c2ncc(-c3ccc4c(=O)n(C)n([C@H](C)c5ccccc5F)c4c3)cn2)CCN1C(=O)CO (single isomer, unassigned) ?
Data returned: 5.00 to 6.00

Data request: What pIC50 value was documented for this molecule, C[C@@H]1CN(c2ncc(-c3ccc4c(=O)n(C)n([C@@H](C)c5ccccc5F)c4c3)cn2)CCN1C(=O)CO (single isomer, unassigned) ?
Data returned: > 6.00

Data request: What pIC50 value was documented for this molecule, `COc1c[nH]nc1Cn1cc(Cn2c3cc(-c4cnc(C(C)(C)O)nc4)ccc3c(=O)n2C)c(C(F)(F)F)c1` ?
Data returned: > 6.00

Data request: What pIC50 value was documented for this molecule, Cc1cccc([C@H](C)n2c3cc(-c4cnc(N5CCN(C(=O)CO)[C@H](C)C5)nc4)ccc3c(=O)n2C)c1 (single isomer, unassigned) ?
Data returned: > 6.00

----------
TARGET UNDER TEST: TNFα trimer (Homo sapiens, UniProt P01375)
Sequence (P01375 77-233 limits assumed): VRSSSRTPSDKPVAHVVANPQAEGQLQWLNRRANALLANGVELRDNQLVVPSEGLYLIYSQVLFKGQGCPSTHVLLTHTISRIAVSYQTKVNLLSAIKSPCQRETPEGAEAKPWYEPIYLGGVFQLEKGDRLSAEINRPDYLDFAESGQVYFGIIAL
ASSAY: TNFα FP Competitive Binding Assay
CONDITION SET: FP binding assay; 20 nM TNFα trimer, 1 nM OregonGreen488 probe; read-out: TNF IC50
pIC50: −log10 of the molar value.
METRIC NAME: pIC50

Some molecules with known pIC50 results, for comparison:
Data request: Param readout = pIC50; param system = TNFα trimer (Homo sapiens, UniProt P01375); param query = CC(c1ccccc1OC(F)F)n1c2cc(-c3cnc(N4CCOCC4)nc3)ccc2c(=O)n1C (centres unmarked) [Example 1.5] ; response: value
Data returned: 5.00 to 6.00

Data request: Param readout = pIC50; param system = TNFα trimer (Homo sapiens, UniProt P01375); param query = Cn1c(=O)c2ccc(-c3cnc(NC4COC4)nc3)cc2n1Cc1ccccc1OC(F)F [Example 2.10] ; response: value
Data returned: 5.00 to 6.00

Data request: Param readout = pIC50; param system = TNFα trimer (Homo sapiens, UniProt P01375); param query = CC(=O)N1CCN(c2ncc(-c3ccc4c(=O)n(C)n(Cc5cc(CC(C)C#N)ccc5OC(F)F)c4c3)cn2)C[C@H]1C (some centres unmarked) [Example 27.4] ; response: value
Data returned: 5.00 to 6.00

Data request: Param readout = pIC50; param system = TNFα trimer (Homo sapiens, UniProt P01375); param query = Cc1cccc(Cn2c3cc(-c4cnc(N5CCOCC5)nc4)ccc3c(=O)n2C)c1 [Example 1.9] ; response: value
Data returned: 5.00 to 6.00

Data request: Param readout = pIC50; param system = TNFα trimer (Homo sapiens, UniProt P01375); param query = Cn1c(=O)c2ccc(-c3cnc(N4CCN5C(=O)OC[C@H]5C4)nc3)cc2n1Cc1ccccc1OC(F)F [Example 2.25] ; response: value
Data returned: > 6.00

Others:
Data request: Param readout = pIC50; param system = TNFα trimer (Homo sapiens, UniProt P01375); param query = CC(=O)N1CC(Cc2ccc(OC(F)F)c(Cn3c4cc(-c5cnc(C(C)(C)O)nc5)c(F)cc4c(=O)n3C)c2)C1 [Example 26.6] ; response: value
Data returned: 5.00 to 6.00

Data request: Param readout = pIC50; param system = TNFα trimer (Homo sapiens, UniProt P01375); param query = C[C@@H]1CN(c2ncc(-c3ccc4c(=O)n(C)n(Cc5ccccc5OC(F)F)c4c3C#N)cn2)CCN1C(=O)CO [Example 23.3] ; response: value
Data returned: > 6.00

Data request: Param readout = pIC50; param system = TNFα trimer (Homo sapiens, UniProt P01375); param query = Cn1c(=O)c2ccc(-c3cnc(N4CCOCC4)nc3)cc2n1C(=O)c1ccccc1 [Example 1.8] ; response: value
Data returned: < 5.00

Data request: Param readout = pIC50; param system = TNFα trimer (Homo sapiens, UniProt P01375); param query = C[C@@H]1CN(c2ccc(-c3cc4c(cc3F)c(=O)n(C)n4Cc3ccccc3OC(F)F)cn2)CCN1C(=O)CO [Example 60] ; response: value
Data returned: > 6.00

Data request: Param readout = pIC50; param system = TNFα trimer (Homo sapiens, UniProt P01375); param query = CN1CCC(Nc2ncc(-c3ccc4c(=O)n(C)n(Cc5cc(CO)ccc5OC(F)F)c4c3)cn2)CC1=O (centres unmarked) [Example 16.9] ; response: value
Data returned: > 6.00

Data request: Param readout = pIC50; param system = TNFα trimer (Homo sapiens, UniProt P01375); param query = C[C@@H]1CN(c2ncc(-c3ccc4c(=O)n(C)n(Cc5ccccc5OC(F)F)c4c3)cn2)CCN1C(=O)[C@@H]1COC(C)(C)O1 [Example 38* Step 1] ; response: value
Data returned: > 6.00

Data request: Param readout = pIC50; param system = TNFα trimer (Homo sapiens, UniProt P01375); param query = Cc1ccc(OC(F)F)c(Cn2c3cc(-c4cnc(N5CCN(C(=O)CO)C[C@H]5C)nc4)ccc3c(=O)n2C)c1 [Example 22.4] ; response: value
Data returned: > 6.00

Data request: Param readout = pIC50; param system = TNFα trimer (Homo sapiens, UniProt P01375); param query = Cn1c(=O)c2ccc(-c3cnc(N4CC5(COC5)C4)nc3)cc2n1Cc1ccccc1OC(F)F [Example 2.4] ; response: value
Data returned: 5.00 to 6.00

Data request: Param readout = pIC50; param system = TNFα trimer (Homo sapiens, UniProt P01375); param query = Cn1c(=O)c2ccc(-c3cnc(C(C)(C)O)nc3)cc2n1Cc1cc(Cn2cn[nH]c2=O)ccc1OC(F)F [Example 92] ; response: value
Data returned: 5.00 to 6.00
